RECORDED METRIC: melting point

Looking up "CC(=O)c1cc(NC(=O)NCCN(CCNC(=O)Nc2cc(C(C)=O)cc(C(C)=O)c2)CCNC(=O)Nc2cc(C(C)=O)cc(C(C)=O)c2)cc(C(C)=O)c1" , I see its melting point listed as 197 to 198 °C

The value of melting point measured for the compound "COc1ccc(C(=O)O)s1" turned out to be 167 to 168 °C

Recorded melting point (compound "CS(=O)(=O)c1ccc(-c2cnn(CC(=O)c3ccc(Cl)cc3)c(=O)c2-c2ccc(F)cc2)cc1" ): 186 to 188 °C

CCOC(=O)CC(C)(C)CC(=O)C1CC2=C(CC(C)(C)CC2)N(C2CCCCC2)C1 (stereo not drawn) has a reported melting point of 44 to 46 °C

Please fill in: melting point reported for CC(C)(C#N)N1CCN(c2ccc(N3CC(CCC(N)=O)OC3=O)cc2F)CC1 (stereo not drawn) = 139 to 143 °C

Kindly note the recorded melting point for "O=C(O)c1cnc(-c2ccc(OCc3ccccc3)cc2)nc1" , which is 299 °C

melting point recorded for this compound, "CC(=O)C(=O)CCCCCCOc1ccc(-c2ccccc2)cc1" , is 110 to 111 °C

Quick note, melting point for "FC(F)(F)c1nc2ccc(Cn3ccnc3)cc2n1CC1CCCCC1" landed at 165 °C

Looking up "CCNC(=O)/C=C(C)/C=C/C(F)=C(C)/C=C/c1c(C)sc(C)c1C" , I found its melting point recorded as 167 to 171 °C

The measured melting point associated with "CN1CCN(c2cc3c(cc2F)c(=O)n(O)c(=O)n3-c2ccc(F)c(Cl)c2)CC1" reads 197 to 199 °C

Entry "CC(C)(C)Sc1cccc(-c2nc(=O)c3ccccc3s2)n1" — recorded melting point = 153 to 154 °C

Note to self: melting point recorded for "C=CCc1cc(C(C)=O)c(NC(C)=O)cc1O" was 172 to 174 °C

The reported melting point of the compound "Nc1nc(N)c(-c2cccc(Cl)c2Cl)c(C(F)(F)F)n1" was 218 to 219 °C

Per the record, CC(c1cccc(C#N)n1)C(O)(Cn1cncn1)c1ccc(F)cc1F (stereo not drawn) has melting point of 144 to 146 °C

The value of melting point measured for the compound "CCOC(=O)NNc1cccc(Cl)n1" turned out to be 139 to 141 °C

Memo: "Cc1ccc(C(=S)c2ccccc2C(=O)O)cc1" , reported melting point: 151 to 155 °C

Lab note: "CCCc1cc(C(=O)O)n(C)n1" gave melting point of 150 to 154 °C

Record summary for O=S(=O)(c1ccc(Cl)cc1)C(c1ccncc1)C1CCCC1 (stereo not drawn) : reported melting point = 133 to 135 °C

Kindly note the recorded melting point for "CS(=O)(=O)c1ccc(/C(=C(\CC(=O)O)C(=O)O)c2ccc(Cl)cc2)cc1" , which is 199 to 200 °C

Lab book: melting point of "CSc1ncc(Sc2nc(C)c(CC(=O)O)s2)c(C(=O)O)n1" noted as 238 to 239 °C

Memo: O=C(c1ccccc1)N1CCCC(c2nc(-c3ccc(F)cc3)no2)C1 (stereo not drawn) , reported melting point: 82 to 83 °C

Measured melting point of "c1ccc(CSc2cc(SCc3ccccc3)c3ccc4c(SCc5ccccc5)cc(SCc5ccccc5)c5ccc2c3c54)cc1" : 178 to 180 °C

Notebook: "Nc1ccccc1N1CCN(CCCCn2c(=O)[nH]c(=O)c3ccccc32)CC1" , melting point read as 121 °C

Record summary for "N#CC1c2ccccc2Oc2ccccc21" : reported melting point = 97 to 98 °C

response.value for CC(C)(C)OC(=O)N1CC(COS(C)(=O)=O)c2c1cc(OCc1ccccc1)c1ncccc21 (stereo not drawn) (field: melting point) = 156 to 157 °C

Form: compound = CNC(=S)C1=CC(C)(COC)Oc2ccc([N+](=O)[O-])cc21 (stereo not drawn) ; melting point = 146 to 148 °C

Entry "CCOC(=O)c1ccc(-c2cnc3c(c2)N(Cc2ccccc2OC(F)(F)F)CCN3)cc1" ; melting point = 153 °C

Lab note: measured melting point of "COC(=O)[C@]1(OS(C)(=O)=O)C[C@H](CC(C)C)[C@@H](O)[C@H](OC(=O)c2ccccc2)C1" was 161 to 162 °C

Lab note: measured melting point of "CCCC(=O)c1cnc2c(CO)cccc2c1Nc1ccc(F)cc1C" was 168 to 170 °C

Quick note, melting point for "OC[C@@H](OCc1ccccc1)[C@@H](O)[C@H](O)[C@@H](CO)OCc1ccccc1" landed at 116 to 117 °C

Form: compound = "Cc1ccc(C2=Cc3cc(C)c(C)cc3C2)cc1" ; melting point = 227 to 228 °C

Short answer for "CC=Cn1c(C)c(C)c2cnnc(OCc3ccc(F)cc3)c21" : melting point was 114 to 115 °C

Field melting point (entry "O=C(O)c1cn(CCCO)c(=O)c2ccccc12" ) reads 205 °C
